For each record, write down the corresponding RM0.
# Assay protocol: Reverse-phase thin-layer chromatographic lipophilicity (RF, RM0)
# Format: physicochemical
# Measurement parameters: Methanol/Water/Hydrochloric acid (conc.); intercept of RM = RM0 + bC
Give bare numbers.

FC(F)(F)c1ccc2c(NCCNCC34CC5CC(CC(C5)C3)C4)ccnc2c1 : 2.421
Clc1ccc2c(NCCCCN(CCC34CC5CC(CC(C5)C3)C4)CCC34CC5CC(CC(C5)C3)C4)ccnc2c1 : 5.456
Clc1ccc2c(NCCNCCC34CC5CC(CC(C5)C3)C4)ccnc2c1 : 2.713

Batch of 3 compounds: report RM0 for each.
1. Clc1ccc2c(Nc3ccc(NCC45CC6CC(CC(C6)C4)C5)cc3)ccnc2c1
2. Clc1ccc2c(NCCCN3CCN(CCCNCCC45CC6CC(CC(C6)C4)C5)CC3)ccnc2c1
3. Clc1ccc2c(NCCCCNCC34CC5CC(CC(C5)C3)C4)ccnc2c1

Response:
1: 2.643; 2: 2.211; 3: 2.348

I have 5 compounds here; please give me RM0 for each one.
1. Clc1ccc2c(N3CCN(CCC45CC6CC(CC(C6)C4)C5)CC3)ccnc2c1
2. Clc1ccc2c(NCCCN3CCN(CCCNCC45CC6CC(CC(C6)C4)C5)CC3)ccnc2c1
3. Clc1ccc2c(NCCCCCCCCNCC34CC5CC(CC(C5)C3)C4)ccnc2c1
4. Clc1ccc2c(N3CCN(CC45CC6CC(CC(C6)C4)C5)CC3)ccnc2c1
5. CC(CCNCC12CC3CC(CC(C3)C1)C2)Nc1ccnc2cc(C(F)(F)F)ccc12 (centres unmarked)

Response:
1. 2.219
2. 1.56
3. 3.7376
4. 1.5449
5. 2.626
